experiment: Cmax in BALB/c mouse plasma at 10 mg/kg, po measured for 0.25 to 24 hrs by LC-MS/MS analysis; type: ADME, organism-based; design: time upper 24 hrs, time lower 0.25 hrs, dose 10 mg/kg, route po
attribute.measured: Cmax (ng/mL)
Reply numerically in ng/mL, unit not repeated.

Data request: Please report the measured Cmax for Clc1ccc(Oc2ccc(Nc3ncnc4[nH]ccc34)cc2)cc1
Data returned: 2270

###

assay: Permeability coefficient in BALB/c mouse assessed as brain to plasma ratio at 5 mg/kg, ip measured for 0.08 to 24 hrs by LC-MS/MS analysis; assay type: ADME, organism-based; conditions: time 0.08-24 hrs
attribute.measured: Kp
Please give only the number in your answer, with no unit.

Data request: Please report the measured Kp for Clc1ccc(Oc2ccc(Nc3ncnc4[nH]ccc34)cc2)cc1
Data returned: 2.63

###

test: AUClast in BALB/c mouse plasma at 5 mg/kg, ip measured for 0.08 to 24 hrs by LC-MS/MS analysis; format: ADME, organism-based; design: dose 5 mg/kg, time 0.08-24 hrs, route ip
attribute.measured: AUC(0-t)
Report as: number unit

Data request: Please report the measured AUC(0-t) for Clc1ccc(Oc2ccc(Nc3ncnc4[nH]ccc34)cc2)cc1
Data returned: 5960 ng·h/mL

###

assay: Tmax in BALB/c mouse brain at 10 mg/kg, po measured for 0.25 to 24 hrs by LC-MS/MS analysis; assay type: ADME, organism-based; settings: time 0.25-24 hrs
attribute.measured: Tmax
Report as: number unit

Data request: Please report the measured Tmax for Clc1ccc(Oc2ccc(Nc3ncnc4[nH]ccc34)cc2)cc1
Data returned: 2 h

###

experiment: Half life in BALB/c mouse plasma at 5 mg/kg, ip measured for 0.08 to 24 hrs by LC-MS/MS analysis; format: ADME, organism-based; details: time 0.08-24 hrs
attribute.measured: half-life (h)
Reply numerically in h, unit not repeated.

Data request: Please report the measured half-life for Clc1ccc(Oc2ccc(Nc3ncnc4[nH]ccc34)cc2)cc1
Data returned: 3.75

###

test: Cmax in BALB/c mouse brain at 5 mg/kg, ip measured for 0.08 to 24 hrs by LC-MS/MS analysis; assay type: ADME, organism-based; parameters: dose 5 mg/kg, time upper 24 hrs, time lower 0.08 hrs, route ip
attribute.measured: Cmax (ng/mL)
Reply numerically in ng/mL, unit not repeated.

Data request: Please report the measured Cmax for Clc1ccc(Oc2ccc(Nc3ncnc4[nH]ccc34)cc2)cc1
Data returned: 4170

###

experiment: Tmax in BALB/c mouse plasma at 5 mg/kg, ip measured for 0.08 to 24 hrs by LC-MS/MS analysis; type: ADME, organism-based; conditions: time 0.08-24 hrs
attribute.measured: Tmax
Report as: number unit

Data request: Please report the measured Tmax for Clc1ccc(Oc2ccc(Nc3ncnc4[nH]ccc34)cc2)cc1
Data returned: 1 h

###

test: Permeability of the compound at pH 7.4 PBS/EtOH buffer (70:30) by PAMPA-BBB assay
attribute.measured: permeability

# count of solved cases: 4
[
  {
    "compound": "COc1cccc(Oc2ccc(Nc3ncnc4[nH]ccc34)cc2)c1",
    "permeability": "Permeable"
  },
  {
    "compound": "Clc1cccc(Cn2cc(COc3ccc(Nc4ncnc5[nH]ccc45)cc3)nn2)c1",
    "permeability": "Impermeable"
  },
  {
    "compound": "O=C(c1ccc(F)cc1)c1ccc(Nc2ncnc3[nH]ccc23)cc1",
    "permeability": "Permeable"
  },
  {
    "compound": "Clc1ccccc1Cn1cc(COc2ccc(Nc3ncnc4[nH]ccc34)cc2)nn1",
    "permeability": "Impermeable"
  }
]

As a next step, examine the compound that follows.
Data request: Please report the measured permeability for CCn1cc(C(=O)O)c(=O)c2cc(F)c(N3CCNCC3)nc21 [ENOXACIN]
Data returned: Permeable
